Measured values drawn from patent US20240309087A1 for this set.

Target: T1, recombinant cynomolgus monkey CD112R antigen (cynomolgus monkey, UniProt A0A2K5WVV8 1-322)
T1 construct: bought
T1 sequence: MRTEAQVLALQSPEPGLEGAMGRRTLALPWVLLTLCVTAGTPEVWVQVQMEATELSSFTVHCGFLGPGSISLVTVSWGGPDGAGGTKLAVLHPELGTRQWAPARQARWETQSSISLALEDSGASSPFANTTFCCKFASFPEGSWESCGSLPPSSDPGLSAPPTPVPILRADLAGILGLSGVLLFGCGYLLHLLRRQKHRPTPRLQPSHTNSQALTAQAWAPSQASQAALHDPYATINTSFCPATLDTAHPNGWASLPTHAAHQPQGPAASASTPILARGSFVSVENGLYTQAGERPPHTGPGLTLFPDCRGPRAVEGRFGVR
Assay: ELISA, coated cynomolgus monkey CD112R
metric: EC50

binder	readout_value
Chi-70 (antibody, V domains shown, chimeric) VH: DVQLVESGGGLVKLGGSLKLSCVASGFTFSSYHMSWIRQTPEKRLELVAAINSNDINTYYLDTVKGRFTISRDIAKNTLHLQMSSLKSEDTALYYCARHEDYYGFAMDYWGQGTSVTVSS VL: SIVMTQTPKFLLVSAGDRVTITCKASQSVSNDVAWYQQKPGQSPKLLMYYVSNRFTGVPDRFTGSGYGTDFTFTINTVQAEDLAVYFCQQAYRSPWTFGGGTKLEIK	3.83 ng/mL
Chi-54 (antibody, V domains shown, chimeric) VH: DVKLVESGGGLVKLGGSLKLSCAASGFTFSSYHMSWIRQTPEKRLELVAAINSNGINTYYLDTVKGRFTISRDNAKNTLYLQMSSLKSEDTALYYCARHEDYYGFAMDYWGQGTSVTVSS VL: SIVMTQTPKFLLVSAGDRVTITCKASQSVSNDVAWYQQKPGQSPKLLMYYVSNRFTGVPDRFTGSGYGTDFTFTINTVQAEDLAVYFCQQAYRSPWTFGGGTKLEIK	3.27 ng/mL
